Reported protein stability index values are given for each entry in this list.
B1: DLC1 (parent)
chain: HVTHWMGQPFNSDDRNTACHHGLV

Variants of: B1
Assay Notes: protein stability index of a GFP-peptide fusion (GPS, HEK-293T) (PSI 1-6); higher = more stable;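 note: lentivirally expressed fusions sorted by FACS into six bins by GFP to DsRed ratio, PSI derived from sequencing read proportions per bin multiplied by bin number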
Setup Conditions: c terminus: a fixed tail appended
Simply state the number, no unit and no words.

Request: // query protein stability index value for entry L23F
Result: 2.02

Request: Param item: H4E
Result: 2.63

***
Request: // query protein stability index value for entry N11H
Result: 1.8

Request: Param item: T17E
Result: 2.32

Request: Param item: G22P
Result: 2.05

Request: Param item: Q8R
Result: 2.15

Request: Param item: H20A
Result: 2.37

Request: Param item: H1K
Result: 2.46

Request: Param item: T17I
Result: 2.25

Request: Param item: G22V
Result: 1.89

Request: Param item: M6A
Result: 2.75

Request: Param item: R15V
Result: 2.11

Request: Param item: Q8K
Result: 2.27

Request: Param item: N11T
Result: 2.02

Request: Param item: N16I
Result: 2.13

Request: Param item: V2Q
Result: 2.87

Request: Param item: M6S
Result: 2.4

Request: Param item: H21K
Result: 2.7

Request: Param item: D14Q
Result: 2.31

Request: Param item: S12N
Result: 2.55
